target: T1, Human C5 (human, UniProt P01031 19-1676); assay: SPR, mAb captured by anti-hFc, 25C
T1 construct: The natural protein has a beta and an alpha chain; also called complement factor 5; complement component 5
The threshold is 300000 M⁻¹ s⁻¹. Values of kon beneath it are tagged Condition met; values meeting or exceeding it are tagged Condition not met.

Hi there! Is kon for H4H12161P (antibody, human IgG4, V domains shown) VH: EVQLVESGGDLVQPGGSLRLSCAASGFTFSDHYMDWVRQAPGKGLDWIGRIRNKANAYNTEYAASVRGRFTISRDDSQNLLYLQMNSLKTDDTAVYYCVRVWNYAYFAMDVWGQGTTVTVSS VL: DIQMTQSPSSLSASVGDRVTITCRSSQNIGIFLNWYQQKPGEAPNLLISAASSLHSGVPSRFSGSGSGTDFTLTIGSLQPEDFATYYCQQTYNTIFTFGPGTKVDIK below 300000 M⁻¹ s⁻¹, do you know?
Condition met

Hello, I'm reviewing records and need to know if kon of H4H12166P9 (antibody, human IgG4, V domains shown, human IgG4 Fc with S108P hinge mutation) VH: QVQLQESGPGLVKPSETLSLTCTVSGDSVSSSYWTWIRQPPGKGLEWIGYIYYSGSSNYNPSLKSRATISVDTSKNQFSLKLSSVTAADTAVYYCAREGNVDHTMIFDYWGQGTLVTVSS VL: AIQMTQSPSSLSASVGDRVTITCRASQGIRNDLGWYQQKPGKAPKLLIYAASSLQSGVPSRFAGRGSGTDFTLTISSLQPEDFATYYCLQDFNYPWHFGQGTKVEIK is below 300000 M⁻¹ s⁻¹. Could you check?
Condition not met

Bench note: check whether H4H12159P (antibody, human IgG4, V domains shown) VH: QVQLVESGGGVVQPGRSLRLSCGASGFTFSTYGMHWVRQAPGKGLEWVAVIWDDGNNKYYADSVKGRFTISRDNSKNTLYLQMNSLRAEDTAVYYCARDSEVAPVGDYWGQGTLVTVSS VL: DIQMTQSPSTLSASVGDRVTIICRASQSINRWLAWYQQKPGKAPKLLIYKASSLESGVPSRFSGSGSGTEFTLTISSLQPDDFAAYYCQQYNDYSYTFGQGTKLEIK shows kon below 300000 M⁻¹ s⁻¹
Condition not met

Take the binder H4H11686N (antibody, human IgG4, V domains shown, also called H2M11686N) VH: QVQLVESGGGLVKPGGSLRLSCAASGFTFSDYYMSWIRQAPGKGLEWVSYISSSGNTIKYADSMKGRFTISRDNAKKSLFVEMNSLRAEDTAVYYCARYKSSSDYFDHWGQGTLVTVSS VL: EIVLTQSPATLSLSPGERATLSCRASQSVRSYLAWYQQKPGQAPRLLIYDASNRATAIPARFSGSGSGTDFTLTISSLEPEDLAVYYCQQSGNWPLTFGGGTKVEIK and say whether its kon is less than 300000 M⁻¹ s⁻¹.
Condition met

Is it true that kon reported for H4H12166P8 (antibody, human IgG4, V domains shown, human IgG4 Fc with S108P hinge mutation) VH: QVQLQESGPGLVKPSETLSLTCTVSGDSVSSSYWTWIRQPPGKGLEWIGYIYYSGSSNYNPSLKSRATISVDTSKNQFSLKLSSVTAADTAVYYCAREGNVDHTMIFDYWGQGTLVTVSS VL: AIQMTQSPSSLSASVGDRVTITCRASQGIRNDLGWYQQKPGKAPKLLIYAASSLQSGVPSRFAGRGSGTDFTLTISSLQPEDFATYYCHQDFNYPWTFGQGTKVEIK is less than 300000 M⁻¹ s⁻¹?
Condition not met
